# Tested on: OVCAR-3 ovarian
# PROCEDURE_TEXT: NCI tumour cell line growth inhibition, 48 h
Reported values of TGI for individual entries

query: Sample CC(C)(O)/C=C\P(C)(=O)c1ccccc1 (stereo not given) — what was its TGI?
result: > 100 µM

query: Sample O=Nc1ccc(O)c2ncccc12 — what was its TGI?
result: 12.4 µM

query: Sample Cc1cc(S(=O)(=O)Nc2nc3ccccc3[nH]2)c(S)cc1Cl — what was its TGI?
result: > 100 µM

query: Sample COc1cc(/C=C2\CCCC3C2=Nc2ccccc2NC3c2cc(OC)c(OC)c(OC)c2)cc(OC)c1OC (stereo not given) — what was its TGI?
result: 6.07 µM

query: Sample COc1cc(CNc2nc3ccccc3n2Cc2ccccc2)cc(CN2CCOCC2)c1O — what was its TGI?
result: 56.6 µM

query: Sample COC(=O)/C(=N\N)C(C(=O)C(=O)Nc1cccc([N+](=O)[O-])c1)c1nc2ccc(C(=O)c3ccccc3)cc2[nH]c1=O (stereo not given) — what was its TGI?
result: > 100 µM

query: Sample CC1(C)C(=O)N(O)C(C)(C)N1N=O — what was its TGI?
result: > 10 µM

query: Sample c1ccc(CCCC2Sc3cccc4cccc(c34)S2)cc1 — what was its TGI?
result: > 100 µM

query: Sample COc1ccc(C(=O)Nc2ccc(S(=O)(=O)NCC(=O)O)cc2)cc1 — what was its TGI?
result: > 100 µM

query: Sample Nc1ccc(-c2ccc(Nc3cc(S(=O)(=O)O)c(N)c4c3C(=O)c3ccccc3C4=O)cc2)c(S(=O)(=O)O)c1 — what was its TGI?
result: > 100 µM

query: Sample COc1ccc2c(c1)CC[C@@H]1[C@@H]2CC[C@]2(C)c3[nH]ncc3C[C@@H]12 — what was its TGI?
result: 18.6 µM
